Target: T1, CAPRIN-1 protein expressed on the membrane surface of human cancer cells (human, UniProt Q14444 2-709)
T1 sequence (looked up): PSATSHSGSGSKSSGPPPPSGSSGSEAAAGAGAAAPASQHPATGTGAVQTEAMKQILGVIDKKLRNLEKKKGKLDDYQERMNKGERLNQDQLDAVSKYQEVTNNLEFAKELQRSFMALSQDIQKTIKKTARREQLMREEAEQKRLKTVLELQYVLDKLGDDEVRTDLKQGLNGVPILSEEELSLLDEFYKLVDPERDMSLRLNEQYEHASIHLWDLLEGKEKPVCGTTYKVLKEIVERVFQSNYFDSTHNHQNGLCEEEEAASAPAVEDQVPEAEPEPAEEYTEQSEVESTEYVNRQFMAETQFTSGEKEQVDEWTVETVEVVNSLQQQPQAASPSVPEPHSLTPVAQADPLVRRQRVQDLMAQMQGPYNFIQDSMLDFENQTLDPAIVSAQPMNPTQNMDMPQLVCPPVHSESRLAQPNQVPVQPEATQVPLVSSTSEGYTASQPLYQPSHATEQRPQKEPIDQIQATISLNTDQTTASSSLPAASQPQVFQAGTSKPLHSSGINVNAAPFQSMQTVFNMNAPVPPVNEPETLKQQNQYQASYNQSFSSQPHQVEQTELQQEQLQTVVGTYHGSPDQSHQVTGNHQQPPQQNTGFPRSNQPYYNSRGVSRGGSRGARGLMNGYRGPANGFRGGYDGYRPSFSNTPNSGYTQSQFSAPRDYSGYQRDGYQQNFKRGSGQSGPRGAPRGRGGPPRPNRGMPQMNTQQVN
Test: cell-based or functional assay
observable: ADCC cytotoxic activity (51Cr release) on HT-1376

binder	recorded_value
humanized antibody #2 (antibody, V domains shown) VH: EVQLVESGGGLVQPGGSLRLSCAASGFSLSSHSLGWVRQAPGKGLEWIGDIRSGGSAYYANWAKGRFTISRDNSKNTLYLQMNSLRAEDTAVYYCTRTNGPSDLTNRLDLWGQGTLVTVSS VL: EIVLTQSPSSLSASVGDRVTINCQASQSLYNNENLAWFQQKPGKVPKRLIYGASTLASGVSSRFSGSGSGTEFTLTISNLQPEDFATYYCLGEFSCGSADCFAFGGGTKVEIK	≥ 40%
humanized antibody #0 (antibody, V domains shown) VH: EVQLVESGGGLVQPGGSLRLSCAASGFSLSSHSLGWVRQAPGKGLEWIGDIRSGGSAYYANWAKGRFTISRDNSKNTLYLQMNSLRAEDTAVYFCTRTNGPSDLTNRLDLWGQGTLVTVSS VL: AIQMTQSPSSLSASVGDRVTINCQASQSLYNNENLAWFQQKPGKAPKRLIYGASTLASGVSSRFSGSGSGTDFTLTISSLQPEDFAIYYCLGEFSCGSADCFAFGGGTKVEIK	≥ 28%
humanized antibody #9 (antibody, V domains shown) VH: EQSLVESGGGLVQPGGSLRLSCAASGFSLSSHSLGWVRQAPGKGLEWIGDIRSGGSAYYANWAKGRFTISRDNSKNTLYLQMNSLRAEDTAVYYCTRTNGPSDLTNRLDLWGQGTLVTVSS VL: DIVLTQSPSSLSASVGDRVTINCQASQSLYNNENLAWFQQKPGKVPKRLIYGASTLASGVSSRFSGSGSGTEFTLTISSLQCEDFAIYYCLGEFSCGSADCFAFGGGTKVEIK	≥ 28%
humanized antibody #10 (antibody, V domains shown) VH: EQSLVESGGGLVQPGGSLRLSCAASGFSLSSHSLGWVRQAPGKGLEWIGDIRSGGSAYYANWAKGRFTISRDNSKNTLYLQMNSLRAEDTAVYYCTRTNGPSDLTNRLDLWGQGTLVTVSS VL: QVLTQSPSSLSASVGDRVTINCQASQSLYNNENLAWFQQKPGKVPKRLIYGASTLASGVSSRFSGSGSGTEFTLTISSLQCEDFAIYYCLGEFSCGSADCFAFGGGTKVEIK	≥ 45%
humanized antibody #1 (antibody, V domains shown) VH: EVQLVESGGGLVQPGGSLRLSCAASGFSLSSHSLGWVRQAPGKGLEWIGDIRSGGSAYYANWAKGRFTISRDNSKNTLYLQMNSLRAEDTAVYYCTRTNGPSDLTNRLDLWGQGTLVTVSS VL: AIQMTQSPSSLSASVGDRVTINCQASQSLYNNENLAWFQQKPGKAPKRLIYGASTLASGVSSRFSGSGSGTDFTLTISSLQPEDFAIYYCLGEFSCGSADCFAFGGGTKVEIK	≥ 28%
humanized antibody #8 (antibody, V domains shown) VH: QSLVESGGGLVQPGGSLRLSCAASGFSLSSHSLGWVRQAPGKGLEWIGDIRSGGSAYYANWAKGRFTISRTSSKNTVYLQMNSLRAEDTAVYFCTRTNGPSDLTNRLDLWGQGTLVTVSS VL: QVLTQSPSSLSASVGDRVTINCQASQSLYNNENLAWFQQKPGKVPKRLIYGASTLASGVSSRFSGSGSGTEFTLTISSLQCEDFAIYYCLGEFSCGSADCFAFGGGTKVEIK	≥ 28%

# credit: patent US20160297889A1
